B1: r16_88_TrROS_Hall (parent)
chain: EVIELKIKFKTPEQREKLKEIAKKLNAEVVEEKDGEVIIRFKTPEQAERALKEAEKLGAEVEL

Variants of: B1
Assay: folding stability dG (cDNA display proteolysis); higher = more stable
Conditions: PBS, room temperature
OBSERVABLE: folding stability dG (kcal/mol)

VARIANT_NOTATION: E31H
OBSERVABLE: folding stability dG
MEASUREMENT: 4.63
//
VARIANT_NOTATION: F9I
OBSERVABLE: folding stability dG
MEASUREMENT: 3.96
//
VARIANT_NOTATION: R15T
OBSERVABLE: folding stability dG
MEASUREMENT: 4.16
//
VARIANT_NOTATION: A54K
OBSERVABLE: folding stability dG
MEASUREMENT: 3.51
//
VARIANT_NOTATION: L5T
OBSERVABLE: folding stability dG
MEASUREMENT: 4.04
//
VARIANT_NOTATION: E32F
OBSERVABLE: folding stability dG
MEASUREMENT: 4.57
//
VARIANT_NOTATION: E45N
OBSERVABLE: folding stability dG
MEASUREMENT: 4.39
//
VARIANT_NOTATION: E45L
OBSERVABLE: folding stability dG
MEASUREMENT: 4.29
//
VARIANT_NOTATION: L51W
OBSERVABLE: folding stability dG
MEASUREMENT: 4.25
//
VARIANT_NOTATION: E1V
OBSERVABLE: folding stability dG
MEASUREMENT: 4.06
//
VARIANT_NOTATION: V2I
OBSERVABLE: folding stability dG
MEASUREMENT: 4.15
//
VARIANT_NOTATION: G35Q
OBSERVABLE: folding stability dG
MEASUREMENT: 4.25
//
VARIANT_NOTATION: E31W
OBSERVABLE: folding stability dG
MEASUREMENT: 4.68
//
VARIANT_NOTATION: E20C
OBSERVABLE: folding stability dG
MEASUREMENT: 4.51
//
VARIANT_NOTATION: Q46L
OBSERVABLE: folding stability dG
MEASUREMENT: 4.28
//
VARIANT_NOTATION: R15A
OBSERVABLE: folding stability dG
MEASUREMENT: 4.13
//
VARIANT_NOTATION: E13L
OBSERVABLE: folding stability dG
MEASUREMENT: 4.88
//
VARIANT_NOTATION: E13P
OBSERVABLE: folding stability dG
MEASUREMENT: 4.54
//
VARIANT_NOTATION: E32I
OBSERVABLE: folding stability dG
MEASUREMENT: 4.39
//
VARIANT_NOTATION: K10E
OBSERVABLE: folding stability dG
MEASUREMENT: 4
//
VARIANT_NOTATION: P12E
OBSERVABLE: folding stability dG
MEASUREMENT: 4.46
//
VARIANT_NOTATION: E20Y
OBSERVABLE: folding stability dG
MEASUREMENT: 4.95
//
VARIANT_NOTATION: E55W
OBSERVABLE: folding stability dG
MEASUREMENT: 4.58
//
VARIANT_NOTATION: I3P
OBSERVABLE: folding stability dG
MEASUREMENT: 4.46
